# system: human TRPC6 (Homo sapiens)
# Sequence (Q9Y210 whole entry): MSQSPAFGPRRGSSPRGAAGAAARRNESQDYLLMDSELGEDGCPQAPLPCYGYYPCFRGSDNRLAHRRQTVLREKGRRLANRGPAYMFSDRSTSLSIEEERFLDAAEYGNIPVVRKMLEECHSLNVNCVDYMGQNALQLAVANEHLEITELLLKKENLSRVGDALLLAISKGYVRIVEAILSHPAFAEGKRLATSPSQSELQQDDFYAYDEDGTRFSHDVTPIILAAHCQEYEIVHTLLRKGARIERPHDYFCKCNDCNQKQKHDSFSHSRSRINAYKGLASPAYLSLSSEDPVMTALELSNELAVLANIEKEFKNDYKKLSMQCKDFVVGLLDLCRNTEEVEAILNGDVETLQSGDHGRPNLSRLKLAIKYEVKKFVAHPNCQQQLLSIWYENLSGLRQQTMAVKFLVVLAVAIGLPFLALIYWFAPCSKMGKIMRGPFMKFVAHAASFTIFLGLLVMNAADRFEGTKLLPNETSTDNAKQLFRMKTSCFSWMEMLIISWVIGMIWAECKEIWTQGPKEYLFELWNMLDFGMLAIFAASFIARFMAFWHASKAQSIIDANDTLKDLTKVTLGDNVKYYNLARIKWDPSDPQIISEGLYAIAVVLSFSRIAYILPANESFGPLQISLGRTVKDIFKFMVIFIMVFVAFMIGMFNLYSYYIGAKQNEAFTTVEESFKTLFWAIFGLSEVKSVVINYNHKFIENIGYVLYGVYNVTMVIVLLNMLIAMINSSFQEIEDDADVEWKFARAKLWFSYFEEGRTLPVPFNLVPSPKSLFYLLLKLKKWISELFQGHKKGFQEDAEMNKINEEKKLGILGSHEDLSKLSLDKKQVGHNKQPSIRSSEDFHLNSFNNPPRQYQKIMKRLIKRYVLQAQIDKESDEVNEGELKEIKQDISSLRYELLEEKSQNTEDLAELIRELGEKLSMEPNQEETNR
# assay: High throughput screening assay: Fluo4/AM calcium fluorescence in HEK293/TREx cells expressing human TRPC6, agonist GSK1702934A (single concentration 10 μM and IC50 curves)
# conditions_used: antagonist effect against human TRPC6, 7 concentrations 20 μM to 0.027 μM, triplicate
pIC50: −log10 of the molar value.
assay_metric: pIC50

COc1ccc(-c2cnc(C(=O)N3CCC(c4ccc(N)nn4)CC3)cc2OC)cc1 ... 6.72
COc1cc(C(=O)N2CCC(c3ccc(N)nn3)CC2)ncc1-c1ccc(C)c(C#N)c1 ... 6.05
COc1cc(C(=O)N2CCN(c3cnc(N)cc3OC)C[C@H]2CC(F)F)ncc1-c1ccc(C(F)(F)F)cc1 (single isomer, unassigned) ... 6.40
COc1cc(C(=O)N2CCN(c3cnc(N)cc3OC)C[C@@H]2CO)ncc1-c1ccc(C(F)(F)F)cc1 ... 6.24
COc1cc(C(=O)N2CCN(c3cnc(N)cc3C)C[C@@H]2CO)ncc1-c1ccc(C(F)(F)F)cc1 ... 7.25
COc1cc(C(=O)N2CCN(c3cnc(N)cc3OC)C[C@H]2CO)ncc1-c1ccccc1 ... 6.27
COc1cc(-c2ccc(C(F)(F)F)cc2)ccc1C(=O)N1CCC(c2ccc(N)nn2)CC1 ... 6.28
COc1cc(C(=O)N2CCC(c3ccc(N)nn3)CC2)ccc1-c1ccc(OCC2CC2(F)F)nc1 (stereo not drawn) ... 6.42

[I] COc1cc(C(=O)N2CCC(c3ccc(N)nn3)CC2)ncc1-c1ccc(OCC(F)(F)F)nc1
[II] COc1cc(C(=O)N2CCC(c3ccc(N)nn3)CC2)ccc1-c1ccc(OCC2(C)CC2)nc1
Two entries are listed, I and II . Which one carries the higher pIC50? Refer to your chosen item by its label in the answer.
II

[P] COc1cc(C(=O)N2CCC(c3ccc(N)nn3)CC2)ncc1-c1ccc(OC2CC2)cc1
[Q] COc1cc(C(=O)N2CCN(c3cnc(N)cc3C)C[C@@H]2CO)ncc1-c1ccccc1
// task: argmin of pIC50 over [ P , Q ] Your choice should be expressed through its label.
P

###

# system: UniProt:Q9Y210
# assay: High throughput screening assay: Fluo4/AM calcium fluorescence in HEK293/TREx cells expressing human TRPC6, agonist GSK1702934A (single concentration 10 μM and IC50 curves)
# conditions_used: antagonist effect against human TRPC6, 7 concentrations 20 μM to 0.027 μM, triplicate
assay_metric: IC50 (nM)

COc1cc(C(=O)N2CCC(c3ccc(N)nn3)CC2)ncc1-c1ccc(OC(F)(F)F)cc1 ... 94
COc1cc(C(=O)N2CCN(c3ccc(N)nc3)C[C@@H]2CO)ncc1-c1ccc(F)cc1 ... 370
COc1cc(C(=O)N2CCC(c3ccc(N)nn3)CC2)ncc1-c1cnc(OC(C)C)nc1 ... 3600
COc1cc(C(=O)N2CCN(c3cnc(N)cc3OC)C[C@H]2CO)ncc1-c1ccc(C(F)(F)F)cc1 ... 390
COc1cc(C(=O)N2CCC(c3nnc(N)cc3C)CC2)ncc1-c1ccc(C(F)(F)F)cc1 ... 280

[1] COc1cc(C(=O)N2CCN(c3cnc(N)cc3OC)CC2)ncc1-c1ccc(F)cc1
[2] COc1ccc(-c2ccc(C(=O)N3CCC(c4ccc(N)nn4)CC3)cc2)cc1
[3] COc1cc(C(=O)N2CCN(c3cnc(N)cc3OC)C[C@@H]2[C@H](C)O)ncc1-c1ccc(C(F)(F)F)cc1
In this exercise, place the 3 compounds in ascending sequence of their recorded IC50. Note for the reader: the ranking is given by listing the labels in the order requested.
1, 3, 2
